target of assay: T1, GFP-9S library array, motif 4 ND N98M;D124T (synthetic construct, N98M;D124T)
T1 chain: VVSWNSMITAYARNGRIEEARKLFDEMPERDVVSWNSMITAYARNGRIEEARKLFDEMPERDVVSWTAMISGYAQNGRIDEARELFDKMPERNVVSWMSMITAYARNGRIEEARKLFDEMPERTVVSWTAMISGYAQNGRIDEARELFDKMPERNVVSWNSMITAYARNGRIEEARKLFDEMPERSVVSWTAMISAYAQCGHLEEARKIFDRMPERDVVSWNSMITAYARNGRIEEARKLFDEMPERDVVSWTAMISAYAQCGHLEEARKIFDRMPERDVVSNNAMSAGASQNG
assay notes: high-throughput RNA pulldown from lysate on Ni-NTA beads; HRP: 50 mM Tris pH 8, 150 mM NaCl, 1 mM beta-mercaptoethanol, 50 ug/ml BSA, 3 ug/ml yeast RNA, 0.5% heparin; ITC and FP: Tris pH 8, 200 mM KCl, 5% glycerol; MST: 50 mM Tris pH 8, 200 mM NaCl, 1 mM DTT, BSA, heparin, 0.05% Tween 20
measurement context: tags: N-terminal His-eGFP; label: 5' IRDye 800CW
measured parameter: pKd
To interpret pKd, take it as minus log10 of a concentration measured in moles per litre.

In: Suppose we examine the binder AUUAAACGUGA (ssRNA) [IR-rpoA-A] ; what pKd value has been reported?
Out: 6.93

In: Suppose we examine the binder AUUAUACGUGA (ssRNA) [IR-rpoA-U] ; what pKd value has been reported?
Out: 6.96
